pKi: −log10 of the molar value.
Across several studies, compounds have been characterized by their pKi on 5-hydroxytryptamine receptor 2C (Rattus norvegicus, UniProt P08909); a selection follows.
Recorded metric: pKi

The cases that follow already have their pKi on record.
Cn1c2c(c3ccccc31)CN(CCCCCCc1ccccc1)CC2 :: 6.28
O=C(Nc1cccnc1)N1CCc2cc3[nH]ccc3cc21 :: 6.90
O=C(CCCN1CCc2c([nH]c3ccccc23)C1)c1ccccc1 :: 6.94
CN1CCc2ccc(OCCCN3CCC(c4noc5cc(F)ccc45)CC3)cc2C1=O :: 5.77
Cc1coc2cc3c(cc12)CCN3C(=O)Nc1cccnc1 :: 8.60
COc1ccc(C(=O)Nc2ccc(OC(CCN(C)C)c3ccccc3)cc2)cc1Cl (stereo not drawn) :: 6.82
C[C@H](Nc1cncc(NCCOc2ccc(F)cc2)c1)c1ccccc1 :: 6.32
O=C(NCCN1CCN(C(c2ccccc2)c2ccc(Cl)cc2)CC1)c1ccccn1 (stereo not drawn) :: 7.30

(I) CN1CCCC[C@@H]1CCN1c2ccccc2Sc2ccc([S@@](C)=O)cc21
(II) Cn1ccc2cc3c(cc21)N(C(=O)Nc1cccnc1)CC3
In: Hi team, can someone confirm which has the larger pKi: I or II ? Thanks. Give the label of your selection.
Out: I
(I: 6.95, II: 5.90)

(P) C[C@H](Nc1cc(NCCOc2ccc(F)cc2)ccn1)c1ccccc1
(Q) CN1CCN(c2ccc3c(n2)-c2ccccc2C3)CC1
In: Hi team, can someone confirm which has the larger pKi: P or Q ? Thanks. Give the label of your selection.
Out: P

(I) Cn1c2c(c3ccccc31)CN(CCCOc1cccc3ccccc13)CC2
(II) Cn1c2c(c3ccccc31)CN(CCCC(=O)c1ccc(F)cc1)CC2
In: // compare: I vs II , metric pKi, want the smaller Give the label of your selection.
Out: I

----------
# Tested system: 5-hydroxytryptamine receptor 2C (Rattus norvegicus)
# Sequence (P08909 whole entry): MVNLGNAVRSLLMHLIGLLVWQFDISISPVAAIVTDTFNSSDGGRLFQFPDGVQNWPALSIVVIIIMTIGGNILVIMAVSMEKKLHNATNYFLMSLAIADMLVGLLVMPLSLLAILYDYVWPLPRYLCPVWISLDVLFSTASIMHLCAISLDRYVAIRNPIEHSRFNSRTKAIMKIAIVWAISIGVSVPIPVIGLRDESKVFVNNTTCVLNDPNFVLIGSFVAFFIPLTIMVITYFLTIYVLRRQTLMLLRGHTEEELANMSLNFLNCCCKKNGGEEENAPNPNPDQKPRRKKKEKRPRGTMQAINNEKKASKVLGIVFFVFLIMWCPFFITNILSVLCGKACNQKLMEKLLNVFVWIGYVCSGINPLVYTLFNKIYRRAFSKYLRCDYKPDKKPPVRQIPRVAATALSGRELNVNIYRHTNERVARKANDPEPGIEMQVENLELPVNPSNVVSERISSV
Across several studies, molecules have been characterized by their Ki on 5-hydroxytryptamine receptor 2C (Rattus norvegicus); a selection follows.

The cases that follow already have their Ki on record.
Fc1ccc(OCCCN2CCC(c3ccc(Cl)cc3)CC2)cc1 :: > 10 µM
O=c1cc(-c2ccccc2)c2ccc(OCCCCN3CCC(c4noc5cc(F)ccc45)CC3)cc2o1 :: 0.256 µM
O=C(NCCCN1CCN(Cc2ccc3c(c2)OCO3)CC1)c1ccccn1 :: > 10 µM
Cn1c2c(c3ccccc31)CN(CCCOc1ccc(N)cc1)CC2 :: 0.3 µM
O=C(NCCCN1CCN(C(=O)c2ccco2)CC1)c1ccccn1 :: > 10 µM
O=C1C2C3C=CC(C3)C2C(=O)N1OCCCN1CCN(c2ncccn2)CC1 (stereo not drawn) :: > 10 µM
CCOc1ccccc1N1CCN(CCNC(=O)c2ccccn2)CC1 :: > 10 µM

Okay, now this molecule:
In: State the recorded Ki for this entry: Cn1c2c(c3ccccc31)CN(CCCCCc1ccccc1)CC2
Out: 1 µM
